Published pIC50 for Seed linoleate 13S-lipoxygenase-1 (Glycine max, UniProt P08170), assembled from different documents, is shown next.
Schema: pIC50 number; meaning minus log10 of the concentration expressed in molar units.

Study these solved cases before continuing.
Sample Smiles: CCn1c(=O)c(C(=O)NCc2cn(CC=C(C)C)nn2)c(O)c2ccccc21
Reported Measurement: 4.15
--
Sample Smiles: C(=C\c1nnc(Nc2ccccc2)s1)/c1ccccc1
Reported Measurement: 5.30
--
Sample Smiles: O=c1ccc2ccc(OCc3cc(-c4cccnc4)no3)cc2o1
Reported Measurement: 5.00
--
Sample Smiles: Clc1ccc(/C=C/c2nnc(Nc3ccccc3)o2)cc1
Reported Measurement: 4.74
--
Sample Smiles: Sc1nnc(/C=C/c2ccc(Cl)cc2)n1-c1ccccc1
Reported Measurement: 5.35
--
Sample Smiles: Sc1nnc(/C=C/c2ccc3c(c2)OCO3)n1-c1ccccc1
Reported Measurement: 5.12
--
Sample Smiles: Cn1c(=O)c(C(=O)NCc2cn(Cc3ccccc3)nn2)c(O)c2ccccc21
Reported Measurement: 5.00
--
Sample Smiles: O=C(/C=C/c1ccc2c(c1)OCO2)NNC(=S)Nc1ccccc1
Reported Measurement: 4.46

// molecule Sc1nnc(/C=C/c2ccc(OCc3ccc(Br)cc3)cc2)n1-c1ccccc1 , assay Seed linoleate 13S-lipoxygenase-1 (Glycine max, UniProt P08170), pIC50 value: 5.35

# pIC50 measured on Seed linoleate 13S-lipoxygenase-1 (Glycine max, UniProt P08170) for item C#CCNC(=O)c1c(O)c2ccccc2n(CC=Cc2ccccc2)c1=O = 4.29

// returns pIC50 for CC(C)=CCn1c(=O)c(C(=O)NCc2cn(Cc3ccccc3)nn2)c(O)c2ccccc21 with Seed linoleate 13S-lipoxygenase-1 (Glycine max, UniProt P08170); value = 4.12
